- study-system: CB1 (Homo sapiens)
- Sequence (P21554 whole entry): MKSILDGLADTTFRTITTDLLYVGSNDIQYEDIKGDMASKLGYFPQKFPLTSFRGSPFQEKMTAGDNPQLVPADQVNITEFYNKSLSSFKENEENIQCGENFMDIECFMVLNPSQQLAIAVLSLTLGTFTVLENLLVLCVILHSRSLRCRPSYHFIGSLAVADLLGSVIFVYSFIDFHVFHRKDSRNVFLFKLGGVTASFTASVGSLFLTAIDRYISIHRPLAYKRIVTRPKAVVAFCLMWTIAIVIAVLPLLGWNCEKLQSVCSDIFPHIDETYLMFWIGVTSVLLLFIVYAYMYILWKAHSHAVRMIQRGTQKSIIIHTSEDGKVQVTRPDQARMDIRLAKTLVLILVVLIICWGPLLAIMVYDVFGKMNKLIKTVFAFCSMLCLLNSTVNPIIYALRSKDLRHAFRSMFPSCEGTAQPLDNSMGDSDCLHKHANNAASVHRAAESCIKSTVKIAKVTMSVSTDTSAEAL
- run-description: CB1 radioligand binding assay
quantity-measured: pIC50
Scale: pIC50 equals -log10([C]), with [C] in mol/L.

What value of measured pIC50 is listed for O=c1c(-c2ccc(O)cc2)coc2cc(O)cc(O)c12 ?
6.82
